target: KRas G12C (Homo sapiens, UniProt P01116, C118S/C51S/C80L/G12C); assay: KRas G12C Modification Assay (LCMS detection of covalent adduct); format: binding; settings: normalized percent of control; tested at 5 μM concentration for 3 hours
Measurement Label: POC

C=CC(=O)N1CCN(c2nc(OCCN(CC)CC)nc3c2CCN(c2cc(O)cc4ccccc24)C3)CC1 [Example 102]    C (“C”>50% POC)
C=CC(=O)N1CCN(c2nc(OC[C@@H]3CCCN3CCOC)nc3c2CCN(c2cc(O)cc4ccccc24)C3)CC1 [Example 144]    C (“C”>50% POC)
C=CC(=O)N1CCN(c2nc(OC[C@@H]3CCCN3C)nc3c2CCN(c2cccc4ccc(C)cc24)C3)C[C@@H]1CC#N [Example 326]    C (“C”>50% POC)
C=CC(=O)N1CCN(c2nc(OCCCO)nc3c2CCN(c2cc(O)cc4ccccc24)C3)CC1 [Example 184]    C (“C”>50% POC)
C=CC(=O)N1CCN(c2nc(OC[C@@H]3CCCN3C)nc3c2CCN(c2cccc(OC)c2C(F)(F)F)C3)C[C@@H]1CC#N [Example 330]    C (“C”>50% POC)

Query: Identify measured POC associated with C=CC(=O)N1CCN(c2nc(O[C@H](C)CN(C)C)nc3c2CCN(c2c(C)ccc4[nH]ncc24)C3)CC1CC#N (stereo partly shown) [Example 152]
Result: C (“C”>50% POC)

Query: Return POC for the following compound: C=CC(=O)N1CCN(c2nc(OCCCN3CCOCC3)nc3c2CCN(c2cc(O)cc(C)c2C)C3)CC1 [Example 213]
Result: C (“C”>50% POC)
